Tested on: Saccharomyces cerevisiae PS128 hsf1 delta, HSF1(1-493) fusion
PROTOCOL DETAILS: growth estimate (transactivation domain function in HSF1 fusion, heat-shock survival) (a.u. (slope of normalised read count over time)); higher = stronger growth at 37°C, i.e. more transactivation activity
CONDITION: library: design library
# binarize growth estimate: threshold -0.1 inclusive, high side yes, low side no

ENTRY SEQUENCE | ASSAY SYSTEM | CATEGORY
PFPDAQDDFLKWWRSEEAQ | Saccharomyces cerevisiae PS128 hsf1 delta, HSF1(1-493) fusion | no
MLSSHGFSVDTSALLDLGSP | Saccharomyces cerevisiae PS128 hsf1 delta, HSF1(1-493) fusion | no
MLSSHGFSVDTSALLDRFSP | Saccharomyces cerevisiae PS128 hsf1 delta, HSF1(1-493) fusion | no
LFRYDFLFGNDFA | Saccharomyces cerevisiae PS128 hsf1 delta, HSF1(1-493) fusion | yes
EPLYSILWSDVY | Saccharomyces cerevisiae PS128 hsf1 delta, HSF1(1-493) fusion | no
EFNDLLDLDFILPN | Saccharomyces cerevisiae PS128 hsf1 delta, HSF1(1-493) fusion | yes
EDDDEFSLGDSML | Saccharomyces cerevisiae PS128 hsf1 delta, HSF1(1-493) fusion | no
PEFAGIELQELQELQALLQQ | Saccharomyces cerevisiae PS128 hsf1 delta, HSF1(1-493) fusion | no
LFDYDPLFGNDFA | Saccharomyces cerevisiae PS128 hsf1 delta, HSF1(1-493) fusion | yes
